Provide the reported drug sensitivity score of each item.
Tested on: HCC1937
Assay: drug sensitivity score (DSS), CellTox Green (DSS (AUC-based score)); higher = stronger drug effect (viability inhibition or cytotoxicity); extreme values may be limits of the assay
Conditions: incubation time: 72 h

> print(dat)
                                   molecule  test.value
1  O=C(O)CNC(=O)c1c(O)c2ccccc2n(Cc2ccccc2)c1=O [IOX-2]           0
2  CC(=O)[C@]1(O)Cc2c(O)c3c(c(O)c2[C@@H](O[C@H]2C[C@H](N)[C@H](O)[C@H](C)O2)C1)C(=O)c1ccccc1C3=O [Idarubicin]           0
3  CCn1c(C(=O)N(C2CC2)C2CC2)cc2c3c(ncn3C)c(Nc3cc(C)n(C)n3)nc21         3.5

Let's switch to this molecule now.
Prompt line: Lookup: drug sensitivity score / HCC1937 / CC(O)(CS(=O)(=O)c1ccc(F)cc1)C(=O)Nc1ccc(C#N)c(C(F)(F)F)c1 (centres undefined) [Bicalutamide]
Response line: 0

---

System: MDA-MB-468
Experiment: normalised viability (% of control), CellTiter-Blue; higher = more viable cells (about 100 = DMSO control)
Settings: 10 nM; incubation time: 72 h
result_type: normalised viability

Recorded results for 3 compounds are shown here.
line_notation	test_value
COc1cc(Nc2c(C#N)cnc3cc(OCCCN4CCN(C)CC4)c(OC)cc23)c(Cl)cc1Cl	104%
CC(C)C[C@H](NC(=O)[C@@H](COC(C)(C)C)NC(=O)[C@H](Cc1ccc(O)cc1)NC(=O)[C@H](CO)NC(=O)[C@H](Cc1c[nH]c2ccccc12)NC(=O)[C@H](Cc1cnc[nH]1)NC(=O)[C@@H]1CCC(=O)N1)C(=O)N[C@@H](CCCNC(=N)N)C(=O)N1CCC[C@H]1C(=O)NNC(N)=O	96.5%
Cn1cc(C2=C(c3cn(C4CCN(Cc5ccccn5)CC4)c4ccccc34)C(=O)NC2=O)c2ccccc21	103%

Hey, quick one: what's normalised viability for each of these?
1. COc1ccc(S(=O)(=O)Nc2cccnc2Nc2ccc(O)cc2)cc1
2. O=C(CCCCCCC(=O)Nc1ccccc1)NO

Response line:
["105%", "105%"]

---

System: CAL-85-1
Test: drug sensitivity score (DSS), CellTox Green (DSS (AUC-based score)); higher = stronger drug effect (viability inhibition or cytotoxicity); extreme values may be limits of the assay
Details: incubation time: 72 h
result_type: drug sensitivity score
Answers are plain numbers.

Recorded results for 3 molecules are shown here.
> print(dat)
                                   molecule  target.system             result.type  test.value
1  Nc1ccn([C@@H]2O[C@H](CO)[C@@H](O)C2(F)F)c(=O)n1       CAL-85-1  drug sensitivity score        4.04
2  CC(=O)[C@]1(O)Cc2c(O)c3c(c(O)c2[C@@H](O[C@H]2C[C@H](N)[C@H](O)[C@H](C)O2)C1)C(=O)c1ccccc1C3=O       CAL-85-1  drug sensitivity score        8.04
3  CNC(=O)c1ccccc1Sc1ccc2c(/C=C/c3ccccn3)n[nH]c2c1       CAL-85-1  drug sensitivity score           0

Hey, quick one: what's drug sensitivity score for each of these?
1. CN(Cc1cnc2nc(N)nc(N)c2n1)c1ccc(C(=O)N[C@@H](CCC(=O)O)C(=O)O)cc1 [Methotrexate]
2. O=[N+]([O-])c1ccc2c(c1)S(=O)(=O)C=C2
3. CN[C@@H](C)C(=O)N[C@H]1CN(C(=O)CC(C)C)CC[C@H]2CC[C@@H](C(=O)NC(c3ccccc3)c3ccccc3)N2C1=O

Response line:
1: 0.579; 2: 19.7; 3: 22.9
